System: PPARg DBDmut IVT, anti-PPARg (DBD mutation: PPARg1 K132A/R137A, NR concentration 270 nM)
testProtocol: PBM binding z-score (relative to random genomic background probes); higher = stronger binding; sequences stand for … in GC…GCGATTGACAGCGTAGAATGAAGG
endpointName: PBM binding z-score
Please state the value as a number alone, without comment.

Recorded PBM binding z-score, per entry:
{"biopolymerSequence": "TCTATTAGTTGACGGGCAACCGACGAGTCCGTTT", "PBM binding z-score": 0.317}
{"biopolymerSequence": "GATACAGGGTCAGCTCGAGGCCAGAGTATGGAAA", "PBM binding z-score": -0.691}
{"biopolymerSequence": "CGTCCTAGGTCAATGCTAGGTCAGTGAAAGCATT", "PBM binding z-score": -0.333}
{"biopolymerSequence": "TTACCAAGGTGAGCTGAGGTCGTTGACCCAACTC", "PBM binding z-score": -0.41}
{"biopolymerSequence": "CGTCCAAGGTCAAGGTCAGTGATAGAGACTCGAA", "PBM binding z-score": 0.138}
{"biopolymerSequence": "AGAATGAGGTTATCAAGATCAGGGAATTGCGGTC", "PBM binding z-score": -0.123}

Exercise: Record request: PBM binding z-score value, item `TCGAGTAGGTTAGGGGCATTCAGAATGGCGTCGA`
Key: -0.987

Exercise: Record request: PBM binding z-score value, item `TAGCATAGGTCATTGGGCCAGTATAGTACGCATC`
Key: 0.329

Exercise: Record request: PBM binding z-score value, item `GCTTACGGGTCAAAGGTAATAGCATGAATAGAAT`
Key: 0.842

Exercise: Record request: PBM binding z-score value, item `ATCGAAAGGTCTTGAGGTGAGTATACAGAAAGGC`
Key: 0.602

Exercise: Record request: PBM binding z-score value, item `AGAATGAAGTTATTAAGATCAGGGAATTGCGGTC`
Key: 0.313

Exercise: Record request: PBM binding z-score value, item `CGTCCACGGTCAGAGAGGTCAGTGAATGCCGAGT`
Key: -1.36

---

Tested on: LXRb homodimer (NR concentration 270 nM)
testProtocol: PBM binding z-score (relative to random genomic background probes); higher = stronger binding; sequences stand for … in GC…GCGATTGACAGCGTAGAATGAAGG
Catalogue of PBM binding z-score values
Please state the value as a number alone, without comment.

{"biopolymerSequence": "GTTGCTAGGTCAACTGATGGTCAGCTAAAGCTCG", "PBM binding z-score": 0.507}
{"biopolymerSequence": "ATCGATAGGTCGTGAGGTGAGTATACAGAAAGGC", "PBM binding z-score": 0.187}
{"biopolymerSequence": "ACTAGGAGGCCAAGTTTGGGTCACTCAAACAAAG", "PBM binding z-score": -0.287}
{"biopolymerSequence": "CGTCAAAGTTCAAGGTAACGTGACAGAAAGCAGC", "PBM binding z-score": 0.738}
{"biopolymerSequence": "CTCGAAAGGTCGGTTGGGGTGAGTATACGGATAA", "PBM binding z-score": 1.41}

Exercise: Requested read-out PBM binding z-score, target or system LXRb homodimer (NR concentration 270 nM), entry `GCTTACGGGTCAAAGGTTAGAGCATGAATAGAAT`
Key: -0.0451
